experiment: Drug uptake in ICR mouse liver at 15 mg/kg, po measured after 4 hrs by LC-MS/MS analysis; type: ADME, organism-based; conditions: read-out: Drug uptake
Measured metric: concentration at 4 h (ng/g)
Numbers only, in ng/g.

{"columns": ["Structure smiles", "concentration at 4 h, ng/g"],
 "data": [
  ["C/C(=N\\OCc1cc(C(=O)O)ccc1C#N)c1ccc(OCc2c(-c3c(Cl)cccc3Cl)noc2C2CC2)cc1Cl", 2610]
]}

C/C(=N\OCc1cc(C(=O)O)ccc1C#N)c1ccc(OCc2c(-c3ccccc3OC(F)(F)F)noc2C2CC2)cc1Cl has a reported concentration at 4 h of 3580

====

assay: Ratio of drug uptake in ICR mouse liver to plasma at 15 mg/kg, po measured after 1.5 hrs by LC-MS/MS analysis; assay type: ADME, organism-based
Measured metric: Kp at 1.5 h
Numbers only.

C/C(=N\OCc1cc(C(=O)O)ccc1C#N)c1ccc(OCc2c(-c3c(Cl)cccc3Cl)noc2C2CC2)cc1Cl has a reported Kp at 1.5 h of 37

====

test: Plasma concentration in ICR mouse at 15 mg/kg, po measured after 4 hrs by LC-MS/MS analysis; format: ADME, organism-based
Can you tell me concentration at 4 h for the items I'm about to list?
One number for each entry, in ng/mL.

{"columns": ["Structure smiles", "Unit string", "concentration at 4 h"],
 "data": [
  ["C/C(=N\\OCc1cc(C(=O)O)ccc1C#N)c1ccc(OCc2c(-c3c(Cl)cccc3Cl)noc2C2CC2)cc1Cl", "ng/mL", 45.4]
]}

Okay, next one:
C/C(=N\OCc1cc(C(=O)O)ccc1C#N)c1ccc(OCc2c(-c3ccccc3OC(F)(F)F)noc2C2CC2)cc1Cl has a reported concentration at 4 h of 45.2

====

Biological target: Bile acid receptor (Homo sapiens)
Sequence (Q96RI1 whole entry): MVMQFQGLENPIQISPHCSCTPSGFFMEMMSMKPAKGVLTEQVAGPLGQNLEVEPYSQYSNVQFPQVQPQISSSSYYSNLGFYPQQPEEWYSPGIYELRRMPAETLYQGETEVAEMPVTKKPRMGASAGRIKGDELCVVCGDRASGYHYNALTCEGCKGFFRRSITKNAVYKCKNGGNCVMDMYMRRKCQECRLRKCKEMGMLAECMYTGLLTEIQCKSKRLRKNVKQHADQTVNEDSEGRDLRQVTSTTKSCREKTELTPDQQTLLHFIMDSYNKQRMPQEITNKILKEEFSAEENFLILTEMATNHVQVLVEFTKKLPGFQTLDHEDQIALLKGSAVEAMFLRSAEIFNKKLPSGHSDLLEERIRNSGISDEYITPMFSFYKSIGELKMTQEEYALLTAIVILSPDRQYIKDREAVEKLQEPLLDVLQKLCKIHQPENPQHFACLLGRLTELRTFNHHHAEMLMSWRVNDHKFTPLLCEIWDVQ
Experiment: Agonist activity at human FXR expressed in human Huh-7 cells co-transfected with FXRE-Luc reporter plasmid assessed as receptor transactivation incubated for 16 hrs by luciferase reporter gene assay
Measured metric: EC50 (nM)
One number for each entry, in nM.

Please review the entries below; each comes with its answer.
{"columns": ["Structure smiles", "Meas value"],
 "data": [
  ["C/C(=N\\OCc1cc(C)cc(C(=O)O)c1)c1ccc(OCc2c(-c3ccccc3OC(F)(F)F)noc2C2CC2)cc1Cl", 158],
  ["C/C(=N\\OCc1cncc(C(=O)O)c1)c1ccc(OCc2c(-c3ccccc3OC(F)(F)F)noc2C2CC2)cc1Cl", 54.8],
  ["C/C(=N\\OCc1cc(C)cc(C(=O)O)c1)c1ccc(OCc2c(-c3ccccc3OC(F)(F)F)noc2C2CC2)c(F)c1", 1340],
  ["C/C(=N\\OCc1cc(C(=O)O)ccc1C#N)c1ccc(OCc2c(-c3ccccc3OC(F)(F)F)noc2C2CC2)c(F)c1", 347],
  ["C/C(=N\\OCc1cc(C)cc(C(=O)O)c1)c1ccc(OCc2c(-c3ccccc3OC(F)(F)F)noc2C2CC2)c(C)c1", 523],
  ["C/C(=N\\OCc1cc(C(=O)O)ccc1C#N)c1ccc(OCc2c(-c3c(Cl)cccc3Cl)noc2C2CC2)cc1Cl", 45.2],
  ["C/C(=N\\OCc1cccc(C(=O)O)c1)c1ccc(OCc2c(-c3c(Cl)cccc3Cl)noc2C2CC2)cc1Cl", 47.4],
  ["C/C(=N\\OCc1ccc(C(=O)O)o1)c1ccc(OCc2c(-c3c(Cl)cccc3Cl)noc2C2CC2)cn1", 1390]
]}

# return EC50 for each item in the list
1. C/C(=N\OCc1cncc(C(=O)O)c1)c1ccc(OCc2c(-c3ccccc3OC(F)(F)F)noc2C2CC2)c(C)c1
2. C/C(=N\OCc1cc(C(=O)O)ccc1C#N)c1ccc(OCc2c(-c3ccccc3OC(F)(F)F)noc2C2CC2)c(C)c1
3. C/C(=N\OCc1cccc(C(=O)O)c1)c1ccc(OCc2c(-c3c(Cl)cccc3Cl)noc2C2CC2)cc1Br

[1830, 440, 37.2]

# return EC50 for each item in the list
1. C/C(=N\OCc1cncc(C(=O)O)c1)c1ccc(OCc2c(-c3ccccc3OC(F)(F)F)noc2C2CC2)c(F)c1
2. C/C(=N\OCc1ccccc1C(=O)O)c1ccc(OCc2c(-c3c(Cl)cccc3Cl)noc2C2CC2)cc1Cl

728
75.4

All figures here come from ChEMBL document CHEMBL5230149.
